// reported Growth Rate per item
test system: HEK-293T; test: Incucyte cell viability with HEK293T; assay type: toxicity, cell-based; conditions: human, 12 h, 10 µM, compound concentration 10 uM, replicate number 2, timepoint 12 hours; further: filed as whole numbers so only -1 and 0 and 1 occur
Where a SMILES comes first, the peptide text is derived from it. [ ]: non-standard residue; d: D form. Arg(Me) = CNC(=N)NCCC[C@H](N)C(=O)O; d4Pal = N[C@H](Cc1ccncc1)C(=O)O; azaGly = NNC(=O)O

compound	Growth Rate
O=C(NCCCN1CCOC1=O)c1cnc(NCc2cc(Br)ccc2Br)nc1NC1CCCC1	1
COc1ccc(CNC(=O)c2cc(-c3cncc(Cl)c3)cnc2-c2ccccn2)nc1OC [MK-1064]	0
CNCCN1CCC(OCc2ccccc2)CC1	1
C=CC(=O)Nc1ccc2ncnc(Nc3ccc(OCc4cccc(F)c4)c(Cl)c3)c2c1.Cc1ccc(S(=O)(=O)O)cc1	0
COc1cccc(OC)c1-c1cc(C(=O)NC2(C(=O)O)C3CC4CC(C3)CC2C4)nn1-c1ccc(C(=O)N(C)CCCN(C)C)cc1C(C)C (stereo not drawn)	1
O=C(O)C[C@H]1CCc2c1[nH]c1ccc(OCc3ccc(C4CCCC4)c(C(F)(F)F)c3)cc21 [ETRASIMOD]	1
CN([C@@H]1CCc2c(CC(=O)O)c3cc(S(C)(=O)=O)ccc3n2C1)S(=O)(=O)c1ccc(F)cc1 [CRTH2-negative-control]	1
O=C(O)[C@@H]1[C@@H](Cn2nnc3ccccc3c2=O)CC[C@H]1C(=O)c1ccc(OCCC2CCOCC2)cc1 [BAY-694]	0
CNC(=N)NCCC[C@H](NC(=O)[C@H](CC(C)C)NC(=O)NNC(=O)[C@H](Cc1ccccc1)NC(=O)[C@H](CO)NC(=O)[C@H](CC(N)=O)NC(=O)[C@@H](Cc1ccncc1)NC(=O)[C@H](N)Cc1ccc(O)cc1)C(=O)N[C@@H](Cc1ccccc1)C(N)=O [KISS1-305] (H-[dY][d4Pal]NSF[azaGly]L[Arg(Me)]F-NH2)	0
C[C@H]1CC(=O)Nc2cc(C(=O)NCCC3CC3)ccc2N1C(=O)N1CC2CC2C1 (stereo partly drawn)	0
O=C(c1ccc(F)cc1)N1CC(COc2ccc(Br)cc2)(C(=O)O)C1 [PF-04475866]	0
Cc1sc2c(c1C)C(c1ccc(Cl)cc1)=N[C@@H](CC(=O)OC(C)(C)C)c1nnc(C)n1-2	0
CNC(=NCCSCc1csc(N=C(N)N)n1)NC#N [TIOTIDINE]	0

---

test system: HEK-293T; experiment: Multiplex assay against HEK293T; assay type: toxicity, cell-based; conditions: human, 12 h, 10 µM, compound concentration 10 uM, replicate 2
quantity.kind: Population Healthy Nuclei (%)

In [3]: df
Out[3]:
                                   molecule                  quantity_kind  readout_unit  reported_measurement
0  CN1CCCC(n2nc(Cc3ccc(Cl)cc3)c3ccccc3c2=O)CC1.Cl (stereo not drawn) [AZELASTINE HYDROCHLORIDE]  Population Healthy Nuclei (%)             %                    23
1  CC[C@H](C)C(=O)O[C@H]1C[C@@H](C)C=C2C=C[C@H](C)[C@H](CC[C@@H]3C[C@@H](O)CC(=O)O3)[C@H]21  Population Healthy Nuclei (%)             %                    45
2  Cc1c(-c2ccc(O)cc2)n(Cc2ccc(OCCN3CCCCCC3)cc2)c2ccc(O)cc12  Population Healthy Nuclei (%)             %                     7
3  Cc1nc(-c2cn3c(n2)-c2ccc(-c4cnn(C(C)(C)C(N)=O)c4)cc2OCC3)n(C(C)C)n1  Population Healthy Nuclei (%)             %                    86
4  Cc1cc(C)cc(-c2cnc3cc(Cl)c(-c4cccc(O)c4)cc3c2OCCCN)c1  Population Healthy Nuclei (%)             %                    18
5  OC1(c2ccc(Cl)cc2)CCN(Cc2c[nH]c3ccccc23)CC1  Population Healthy Nuclei (%)             %                    14
6  CC(C)NCC(O)COc1ccc(CCOCC2CC2)cc1.Cl (stereo not drawn) [BETAXOLOL HYDROCHLORIDE]  Population Healthy Nuclei (%)             %                    30

---

test system: HEK-293T; test: Multiplex assay against HEK293T; format: toxicity, cell-based; conditions: human, 24 h, 10 µM, compound concentration 10 uM, replicate 1
quantity.kind: Population Healthy Nuclei (%)

In [3]: df
Out[3]:
                                   compound  readout_unit  reported_measurement
0  C[C@@H](NCCCc1cccc(C(F)(F)F)c1)c1cccc2ccccc12.Cl [CINACALCET HYDROCHLORIDE]             %                    15
1  CN1CCN(CCOc2cc(OC3CCOCC3)c3c(Nc4c(Cl)ccc5c4OCO5)ncnc3c2)CC1             %                    15
2  CC[C@H](C)C(=O)O[C@H]1C[C@@H](C)C=C2C=C[C@H](C)[C@H](CC[C@@H]3C[C@@H](O)CC(=O)O3)[C@H]21             %                    37
3  c1cn2cc(-c3ccc4cn[nH]c4c3)nc(Nc3ccc(N4CCOCC4)cc3)c2n1             %                     8

---

test system: U2OS; assay: Multiplex assay against U2OS; type: toxicity, cell-based; details: human, 24 h, 10 µM, compound concentration 10 uM, replicate 2
// reported Population Normal (%) per item
quantity.kind: Population Normal (%)

>>> df
                                   compound          quantity_kind  reported_measurement
0  Cn1cncc1[C@@](O)(COc1ccc(C#N)cc1-c1ccc(OC(F)(F)F)cc1)c1ccc(C#N)cc1  Population Normal (%)                    92
1  CN(C)CC#Cc1ccc(OCCCc2sc(N3CCc4cccc(C(=O)Nc5nc6ccccc6s5)c4C3)nc2C(=O)O)c(F)c1  Population Normal (%)                    89
2  COc1cccc([C@@H](C)NCCCc2ccccc2Cl)c1.Cl [TECALCET HYDROCHLORIDE]  Population Normal (%)                    91
3  Cc1nc(-c2ccc(-c3ccc(C(=O)N4CCc5cc6c(cc54)C4(CCN(C)CC4)CO6)cc3)c(C)c2)no1  Population Normal (%)                    88
4  C=CC(=O)Nc1cccc(C(=O)Nc2ccc(Nc3cc(-c4[nH]c(SC)nc4C)ccn3)cc2)c1  Population Normal (%)                    88

---

// reported Population Hoechst High Intensity Objects (%) per item
test system: Fibroblast; test: Multiplex assay against human fibroblast; format: toxicity, cell-based; details: 48 h, 1 µM, compound concentration 1 uM, replicate 2
quantity.kind: Population Hoechst High Intensity Objects (%)

>>> print(df.to_string())
                                   molecule  reported_measurement
0  CC(C)(O)CNc1ncc(-c2ccnc(Nc3ccnc(Cl)c3)n2)c(CC2CC2)n1                   10%
1  CN(C)C(=O)/C(C#N)=C/c1ccc(-c2nc3cnc4[nH]ccc4c3n2C2CCCCC2)o1                   10%
2  C[C@@H](NCCCc1cccc(C(F)(F)F)c1)c1cccc2ccccc12.Cl [CINACALCET HYDROCHLORIDE]                   10%

---

system: HEK-293T; assay: Multiplex assay against HEK293T; type: toxicity, cell-based; conditions: human, 24 h, 10 µM, compound concentration 10 uM, replicate 1
quantity.kind: Total Cell Count

In [3]: df
Out[3]:
                                    compound  reported_measurement
 0  COc1cccc([C@@H](C)NCCCc2ccccc2Cl)c1.Cl [TECALCET HYDROCHLORIDE]                   307
 1  CN1CCN(CCOc2cc(OC3CCOCC3)c3c(Nc4c(Cl)ccc5c4OCO5)ncnc3c2)CC1                   248
 2  CN(C)CC#Cc1ccc(OCCCc2sc(N3CCc4cccc(C(=O)Nc5nc6ccccc6s5)c4C3)nc2C(=O)O)c(F)c1                   298
 3  CCN(CC)CCCCNc1ncc2cc(-c3cc(OC)cc(OC)c3)c(NC(=O)NC(C)(C)C)nc2n1                   733
 4  Cc1[nH]c(/C=C2\C(=O)Nc3ccc(S(=O)(=O)N(C)c4cccc(Cl)c4)cc32)c(C)c1C(=O)N1CCN(C)CC1                   230
 5  CN1CCN(c2ccc(OC(F)(F)F)c(Nc3ncc4c(n3)-c3c(c(C(N)=O)nn3CCO)CC4)c2)CC1                   303
 6  CC(C)NCC(O)COc1ccc(CCOCC2CC2)cc1.Cl (configuration not stated) [BETAXOLOL HYDROCHLORIDE]                   258
 7  CC[C@H](C)C(=O)O[C@H]1C[C@@H](C)C=C2C=C[C@H](C)[C@H](CC[C@@H]3C[C@@H](O)CC(=O)O3)[C@H]21                   349
 8  C=CC(=O)Nc1ccc2ncnc(Nc3ccc(OCc4cccc(F)c4)c(Cl)c3)c2c1.Cc1ccc(S(=O)(=O)O)cc1                   262
 9  C=CC(=O)Nc1cccc(C(=O)Nc2ccc(Nc3cc(-c4[nH]c(SC)nc4C)ccn3)cc2)c1                   233
10  Cc1c(-c2ccc(O)cc2)n(Cc2ccc(OCCN3CCCCCC3)cc2)c2ccc(O)cc12                   175
11  CN1CCC[C@@H]1CCO[C@](C)(c1ccccc1)c1ccc(Cl)cc1.O=C(O)/C=C/C(=O)O [CLEMASTINE FUMARATE]                   211
12  Cc1cc(C)cc(-c2cnc3cc(Cl)c(-c4cccc(O)c4)cc3c2OCCCN)c1                   232
13  Cn1cc(-c2[nH]c3cc(NC(=O)[C@H](N)C4CCCCC4)cc4c3c2C=NNC4=O)cn1                   311
14  Cc1nc(-c2ccc(-c3ccc(C(=O)N4CCc5cc6c(cc54)C4(CCN(C)CC4)CO6)cc3)c(C)c2)no1                   316
15  Cc1csc2c(N[C@@H](C)CN3CCN(S(=O)(=O)c4ccc(Cl)c(Cl)c4)CC3)ncnc12                   208
16  CN(C)C(=O)/C(C#N)=C/c1ccc(-c2nc3cnc4[nH]ccc4c3n2C2CCCCC2)o1                   448
